Entry source: PubChem BioAssay AID2060889

tested on: LG0567-F671-PDC complex spheroids viability; assay: Anticancer human tumor LG0567-F671-PDC patient-derived lung adenocarcinoma cell line growth inhibition [RAS]; details: second compound 1 µM; first compound 0.1 µM; active compounds read low;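 further: spheroids exposed to compound for seven days before readout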
QUANTITY_MEASURED: viability, T/C (%)
The figure you give is taken to be in %; do not add the unit.

Input line: LG0567-F671-PDC complex spheroids viability / viability, T/C / CC(C)n1nc(-c2ccc3oc(N)nc3c2)c2c(N)ncnc21 + C=CC(=O)N1CCN(c2nc(OCC3CCCN3C)nc3c(F)c(-c4nc(N)cc(C)c4C(F)(F)F)c(Cl)cc23)C(C)C1 : value?
Output line: 5.83

Input line: Same read-out for C[C@@H](NC(=O)c1ncnc(N)c1Cl)c1ncc(C(=O)Nc2cc(C(F)(F)F)c(Cl)cn2)s1 + C#Cc1c(F)ccc2cc(O)cc(-c3ncc4c(N5CC6CCC(C5)N6)nc(OCC56CCCN5CC(F)C6)nc4c3F)c12 ?
Output line: 43.7

Further cases:
Input line: LG0567-F671-PDC complex spheroids viability / viability, T/C / C[C@@H](NC(=O)c1ncnc(N)c1Cl)c1ncc(C(=O)Nc2cc(C(F)(F)F)c(Cl)cn2)s1 + C=CC(=O)N1CCN(c2nc(OCC3CCCN3C)nc3c(F)c(-c4nc(N)cc(C)c4C(F)(F)F)c(Cl)cc23)C(C)C1 : value?
Output line: 17.4

Input line: Same read-out for CC(=O)OC12COC1CC(O)C1(C)C(=O)C(O)C3=C(C)C(OC(=O)C(O)C(NC(=O)OC(C)(C)C)c4ccccc4)CC(O)(C(OC(=O)c4ccccc4)C21)C3(C)C (centres undefined) + C#Cc1c(F)ccc2cc(O)cc(-c3ncc4c(N5CC6CCC(C5)N6)nc(OCC56CCCN5CC(F)C6)nc4c3F)c12 ?
Output line: 24.8

Input line: Same read-out for CC(C)NCC(C(=O)N1CCN(c2ncnc3c2C(C)CC3O)CC1)c1ccc(Cl)cc1 (centres undefined) + C=CC(=O)N1CCN(c2nc(OCC3CCCN3C)nc3c(F)c(-c4nc(N)cc(C)c4C(F)(F)F)c(Cl)cc23)C(C)C1 ?
Output line: 11.9

Input line: Same read-out for Cc1nc(N2CCC3(CC2)COC(C)C3N)c(CO)nc1Sc1ccnc(N)c1Cl (centres undefined) + C=CC(=O)N1CCN(c2nc(OCC3CCCN3C)nc3c(F)c(-c4nc(N)cc(C)c4C(F)(F)F)c(Cl)cc23)C(C)C1 ?
Output line: 8.28

Input line: Same read-out for CC(C)n1nc(-c2ccc3oc(N)nc3c2)c2c(N)ncnc21 + C#Cc1c(F)ccc2cc(O)cc(-c3ncc4c(N5CC6CCC(C5)N6)nc(OCC56CCCN5CC(F)C6)nc4c3F)c12 ?
Output line: 18.5

Input line: Same read-out for CCN1CCN(Cc2ccc(Nc3ncc(F)c(-c4cc(F)c5nc(C)n(C(C)C)c5c4)n3)nc2)CC1 + C=CC(=O)N1CCN(c2nc(OCC3CCCN3C)nc3c(F)c(-c4nc(N)cc(C)c4C(F)(F)F)c(Cl)cc23)C(C)C1 ?
Output line: 13.7

Input line: Same read-out for CCC(CC)c1cc(NC2CCC(N)C2)n2nccc2n1 (centres undefined) + C#Cc1c(F)ccc2cc(O)cc(-c3ncc4c(N5CC6CCC(C5)N6)nc(OCC56CCCN5CC(F)C6)nc4c3F)c12 ?
Output line: 37
